// data source = patent US11046658B2

test system: Phosphorylated Ribosomal Protein S6 (RPS6) in THP-1 cells; assay: THP-1 RPS6 ELISA Assay; type: cell-based, Human; conditions: Homo sapiens; Table A4; THP-1 cells, 10 nM MCP-1; cells given with + symbol; read-out: PI3Kγ_THP1_RPS6_ELISA IC50
Counter-ions that a name gives are not always drawn.
readout-label: IC50

IC50 lookup needed for Cc1ccc(C(O)(C(N)=O)C(F)(F)F)cc1-c1cnc(N)c(N2CCN3C(=O)CCC3C2)n1 (stereo not shown) [Example 126, trifluoroacetate] , thanks.
< 100 nM

---
IC50 lookup needed for Cc1ccc(C(O)(C(N)=O)C(F)(F)F)cc1-c1cnc(N)c(N2CCN(c3ccccc3C#N)CC2)n1 (stereo not shown) [Example 122, trifluoroacetate] , thanks.
< 100 nM

IC50 lookup needed for Cc1ccc(C(O)(C(N)=O)C(F)(F)F)cc1-c1cnc(N)c(N2CCN(c3cncs3)CC2)n1 (stereo not shown) [Example 120, trifluoroacetate] , thanks.
< 100 nM

* * *

target: PI3Kγ (p110γ) Recombinant Human Protein (Homo sapiens (Human), UniProt P48736); experiment: PI3K-γ Scintillation Proximity Assay; format: biochemical; details: Table A3; 2 μM ATP, 20 μM PIP2
Sequence (P48736 whole entry): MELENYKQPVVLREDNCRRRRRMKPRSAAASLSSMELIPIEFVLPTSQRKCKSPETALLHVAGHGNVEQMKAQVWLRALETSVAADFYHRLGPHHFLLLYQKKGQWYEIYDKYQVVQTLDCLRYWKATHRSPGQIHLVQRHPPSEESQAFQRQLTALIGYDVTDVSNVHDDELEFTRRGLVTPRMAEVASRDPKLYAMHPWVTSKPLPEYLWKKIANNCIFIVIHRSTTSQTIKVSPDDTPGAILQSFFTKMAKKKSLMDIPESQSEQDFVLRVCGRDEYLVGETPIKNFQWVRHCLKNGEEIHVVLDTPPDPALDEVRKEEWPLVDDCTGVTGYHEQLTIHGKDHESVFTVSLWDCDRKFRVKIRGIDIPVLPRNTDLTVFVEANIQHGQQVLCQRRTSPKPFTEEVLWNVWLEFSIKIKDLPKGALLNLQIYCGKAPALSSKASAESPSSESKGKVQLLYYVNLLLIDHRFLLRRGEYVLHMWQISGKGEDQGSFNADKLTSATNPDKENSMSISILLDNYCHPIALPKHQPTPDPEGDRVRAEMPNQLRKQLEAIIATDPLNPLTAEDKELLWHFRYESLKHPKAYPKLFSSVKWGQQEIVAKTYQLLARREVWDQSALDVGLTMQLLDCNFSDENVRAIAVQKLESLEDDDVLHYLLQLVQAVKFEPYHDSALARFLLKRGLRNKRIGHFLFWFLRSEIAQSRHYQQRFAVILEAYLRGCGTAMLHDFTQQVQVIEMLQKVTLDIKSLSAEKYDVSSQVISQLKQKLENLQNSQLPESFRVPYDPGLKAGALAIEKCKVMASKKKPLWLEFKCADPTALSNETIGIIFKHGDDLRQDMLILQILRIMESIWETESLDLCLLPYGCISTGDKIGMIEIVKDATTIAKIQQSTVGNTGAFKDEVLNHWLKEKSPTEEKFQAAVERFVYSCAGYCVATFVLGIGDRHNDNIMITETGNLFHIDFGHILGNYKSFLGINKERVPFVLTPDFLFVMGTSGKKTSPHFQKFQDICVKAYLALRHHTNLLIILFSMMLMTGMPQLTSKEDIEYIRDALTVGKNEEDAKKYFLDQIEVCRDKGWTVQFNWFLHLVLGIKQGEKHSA
pIC50: −log10 of the molar value. Structures can show the parent of a compound that is named as a salt.
readout-label: pIC50

pIC50 lookup needed for Cc1ccc(C(O)(C(=O)N(C)C)C(F)(F)F)cc1-c1cnc(N)c(-n2cncn2)n1 (stereo not shown) [Example 95, trifluoroacetate] , thanks.
> 6.30

* * *

molecular target: PI3Kδ (p110δ/p85α) Recombinant Human Protein (Homo sapiens (Human)); test: PI3Kδ Scintillation Proximity Assay; format: biochemical; details: Table A4; 2 μM ATP, 20 μM PIP2
Sequence (O00329 whole entry): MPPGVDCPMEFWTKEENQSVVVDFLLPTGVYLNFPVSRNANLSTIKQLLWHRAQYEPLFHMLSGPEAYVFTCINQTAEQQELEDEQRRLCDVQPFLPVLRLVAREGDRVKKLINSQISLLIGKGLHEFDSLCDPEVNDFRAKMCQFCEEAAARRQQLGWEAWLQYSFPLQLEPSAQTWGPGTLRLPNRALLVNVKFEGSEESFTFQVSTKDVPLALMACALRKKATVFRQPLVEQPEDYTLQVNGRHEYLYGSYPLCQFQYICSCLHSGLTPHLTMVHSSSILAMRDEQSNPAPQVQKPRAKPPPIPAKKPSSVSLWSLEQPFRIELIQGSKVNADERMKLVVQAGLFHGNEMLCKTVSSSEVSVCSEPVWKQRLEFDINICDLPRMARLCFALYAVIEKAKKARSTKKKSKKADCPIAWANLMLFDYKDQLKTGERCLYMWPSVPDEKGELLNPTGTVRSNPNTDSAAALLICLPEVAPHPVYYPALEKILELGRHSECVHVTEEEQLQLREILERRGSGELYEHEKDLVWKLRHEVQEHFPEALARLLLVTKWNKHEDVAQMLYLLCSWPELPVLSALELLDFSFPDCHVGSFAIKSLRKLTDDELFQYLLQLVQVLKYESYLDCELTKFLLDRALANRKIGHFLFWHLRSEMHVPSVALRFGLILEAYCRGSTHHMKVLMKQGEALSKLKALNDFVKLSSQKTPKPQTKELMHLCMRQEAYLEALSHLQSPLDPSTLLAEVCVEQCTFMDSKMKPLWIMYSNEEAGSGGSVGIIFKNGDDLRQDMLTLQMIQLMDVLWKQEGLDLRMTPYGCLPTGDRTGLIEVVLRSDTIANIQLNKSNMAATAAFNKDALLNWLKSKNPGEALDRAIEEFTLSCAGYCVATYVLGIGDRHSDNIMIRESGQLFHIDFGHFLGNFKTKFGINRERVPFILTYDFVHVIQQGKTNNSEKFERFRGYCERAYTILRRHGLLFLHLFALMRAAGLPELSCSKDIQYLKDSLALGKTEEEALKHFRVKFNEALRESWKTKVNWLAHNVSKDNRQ
Sequence (P27986 whole entry partner): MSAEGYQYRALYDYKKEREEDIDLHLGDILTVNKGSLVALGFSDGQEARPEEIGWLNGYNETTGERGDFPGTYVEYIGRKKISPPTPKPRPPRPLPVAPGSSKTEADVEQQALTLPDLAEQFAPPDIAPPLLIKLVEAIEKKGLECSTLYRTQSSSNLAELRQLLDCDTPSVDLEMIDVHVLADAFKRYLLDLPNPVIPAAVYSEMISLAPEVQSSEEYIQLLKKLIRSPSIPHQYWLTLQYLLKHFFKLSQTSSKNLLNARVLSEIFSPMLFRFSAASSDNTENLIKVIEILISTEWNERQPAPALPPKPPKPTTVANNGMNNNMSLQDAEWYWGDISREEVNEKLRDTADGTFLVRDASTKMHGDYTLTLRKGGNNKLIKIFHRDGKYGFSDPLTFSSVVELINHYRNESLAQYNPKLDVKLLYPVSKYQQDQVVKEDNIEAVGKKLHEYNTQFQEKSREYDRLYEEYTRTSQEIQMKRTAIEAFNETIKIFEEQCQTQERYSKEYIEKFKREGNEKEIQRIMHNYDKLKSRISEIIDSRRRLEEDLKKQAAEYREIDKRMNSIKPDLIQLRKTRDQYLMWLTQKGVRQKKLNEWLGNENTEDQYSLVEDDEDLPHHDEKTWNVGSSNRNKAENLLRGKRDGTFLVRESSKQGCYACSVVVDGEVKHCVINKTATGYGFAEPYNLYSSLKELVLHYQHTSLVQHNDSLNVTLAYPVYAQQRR
pIC50: −log10 of the molar value. Structures can show the parent of a compound that is named as a salt.
Entries annotated with measured pIC50

Request body: readout pIC50, system PI3Kδ (p110δ/p85α) Recombinant Human Protein (Homo sapiens (Human)), query CCOc1ccccc1N1CCN(c2nc(-c3cc(C(O)(C(N)=O)C(F)(F)F)ccc3C)cnc2N)CC1 (stereo not drawn) [Example 129, trifluoroacetate] . Return the value.
> 6.30

Request body: readout pIC50, system PI3Kδ (p110δ/p85α) Recombinant Human Protein (Homo sapiens (Human)), query Cc1ccc(C(O)(C(N)=O)C(F)(F)F)cc1-c1cnc(N)c(N2CCN(c3ccccc3C)CC2)n1 (stereo not drawn) [Example 118, trifluoroacetate] . Return the value.
> 6.30

Then there is this molecule:
Request body: readout pIC50, system PI3Kδ (p110δ/p85α) Recombinant Human Protein (Homo sapiens (Human)), query Cc1ccc(C(O)(C(N)=O)C(F)(F)F)cc1-c1cnc(N)c(N2CCN(C3CC3)C(=O)C2)n1 (stereo not drawn) [Example 112, trifluoroacetate] . Return the value.
> 6.30
